Recorded values, source the supplement of paper PMC6763611.

Listed molecules paired with reported growth inhibition
# Test system: Plasmodium falciparum NF54
# Experiment Summary: growth inhibition relative to untreated control; higher = more inhibition
# Stated Conditions: 1 µM; minimal medium (MM); 72 h

Some entries whose results are on file:
- Cc1cc(Cl)ccc1NC(=O)CCc1ccc(S(=O)(=O)NCC(C)C)cc1: < 0%
- CNC(=O)C1Cc2c([nH]c3cc(Cl)ccc23)C2(CCN(CCc3ccccc3)CC2)N1 (centres undefined): > 100%
- COc1ccc2nc(C)cc(OCC(=O)Nc3ccccc3OC)c2c1: < 0%

// moving on: another record for growth inhibition
For Plasmodium falciparum NF54, give the measured growth inhibition of the entry Clc1cccc(CO[C@H]2CCc3ccccc3[C@@H]2n2ccnn2)c1 < 0%

* * *

# System: Plasmodium falciparum NF54
# Experiment Summary: growth inhibition relative to untreated control; higher = more inhibition
# Stated Conditions: 5 µM; MM + chorismate end-products (CM screening medium); 72 h
Measure Name: growth inhibition (%)
Note: unit % is implicit; provide only the numeric part.

Known results for compounds:
- Cn1ccnc1CNCCS(=O)(=O)c1cccc(Nc2ccc(-c3cccc(F)c3)cn2)c1: 26.9
- COC(=O)c1c(NC(=O)c2cc3ccccc3oc2=O)sc2c1CCN(Cc1ccccc1)C2: 5.7

Indicate the recorded growth inhibition value for this compound: N=C(N)Nc1ccc(-c2ccc(-c3ccc(NC(=N)N)cc3Cl)o2)c(Cl)c1 95.7

Determine its reported growth inhibition: Nc1cccnc1Nc1ccc(Cl)cc1 47.3

* * *

# Tested on: Plasmodium falciparum NF54
# Experiment Summary: growth inhibition relative to untreated control; higher = more inhibition
# Stated Conditions: 5 µM; MM + chorismate end-products (CM screening medium); 72 h
The entries below are paired with their reported growth inhibition.

Study these solved cases before continuing.
• Clc1cccc(C(c2ccc(CN3CCNCC3)cc2)n2ccnc2)c1 (centres undefined) = 93.5%
• CC(C)(C)c1cc(C(=O)Nc2cccnc2)cc(C(=O)Nc2cccnc2)c1 = 87.5%
• CC(=O)N1CCN(c2ccc(Oc3ccc(Cl)cc3O)cc2)CC1 = < 0%
• c1cc(C2=NCCN2)cc(-c2cc(-c3ccc(C4=NCCN4)cc3)no2)c1 = 97.8%
• COc1cc(C2=NCCN2)ccc1-n1cc(-c2cccc(C3=NCCN3)c2)nn1 = 66.5%

Read off the recorded growth inhibition for N=C(N)Nc1ccc(-c2ccc(-c3ccc(N=C(N)N)c(Cl)c3)o2)cc1Cl 97.4%

Fill in reported growth inhibition for this entry: CC(C(=O)Nc1ccc2oc(-c3ccncc3)nc2c1)c1ccccc1 (centres undefined) < 0%

Supply recorded growth inhibition for FC(F)(F)c1ccc(N(c2cccnc2)C2CCN(c3ccc(C(F)(F)F)cn3)CC2)cc1 here. 93.8%

Specify growth inhibition for Cc1ccc(S(=O)(=O)n2cc(-c3ccnc(N)c3)c3cc(Br)cnc32)cc1 and stop. 97.8%

Give the reported growth inhibition for this compound. Brc1cncc(-c2cc(NCCCn3ccnc3)nc(-c3ccccc3)n2)c1 91.2%

Read off the recorded growth inhibition for c1ccc(-c2nc(NC3CCCCC3)cc(C3CC3)n2)nc1 94.6%

Look up and report measured growth inhibition for this entry: CCN(CC)S(=O)(=O)c1ccc(C(=O)Nc2cc(C)nn2-c2nc(C)c(C)c(=O)[nH]2)cc1 78.9%

Using known records, supply growth inhibition for CNc1snc(C)c1C(=O)NCCOc1ccc(OC)cc1 42.9%

// fetch growth inhibition given entry CCOc1ccc2cc(-c3nn(C(C)(C)C)c(N)c3C(N)=O)cnc2c1 3.3%

Identify growth inhibition associated with the compound COc1ccccc1OCCCCn1c(C2CC2)nc2ccccc21 74.9%

Name the recorded growth inhibition of the compound listed here: C[C@H](c1ccc2c(c1)CCCC2)N(C)c1ncc2c(N)nc(N)nc2n1 36%

Query growth inhibition for COc1ccc(-c2cnc3ccc(NCc4ccc(S(N)(=O)=O)cc4)nn23)cn1 95.9%

Please give measured growth inhibition of the following entry: CC(=O)NC[C@@H]1CN(c2ccc(N3CCOCC3)c(F)c2)C(=O)O1 < 0%

Please give measured growth inhibition of the following entry: COc1cc(C2=NCCN2)ccc1-c1cn(-c2cccc(C3=NCCN3)c2)nn1 > 100%

* * *

# System: Plasmodium falciparum NF54
# Experiment Summary: growth inhibition relative to untreated control; higher = more inhibition
# Stated Conditions: 5 µM; minimal medium (MM); 72 h
Quick rule: growth inhibition of at least 30% means criterion met, below that means criterion not met.

# example entries with known answers
* CCCCCCCCCCCCCCCCOP(=O)([O-])OCC[N+](C)(C)C | criterion not met
* CC1CCCCN1C(=O)NCCc1coc(-c2ccc(F)cc2)n1 (stereo not given) | criterion not met
* O=C(NCCc1c[nH]c2ccccc12)c1cc2ccccc2oc1=O | criterion not met
* Nc1ccc(C(=O)Nc2ccc(-c3nc4ccccc4o3)cc2)cc1 | criterion not met
* CC(=O)N(CCN(C(=O)c1ccc(F)cc1)c1ccccc1)c1ccccc1 | criterion not met
* COc1cccc(-n2nnnc2S(C)(=O)=O)c1 | criterion not met
* CS(=O)(=O)c1ccc(C(=O)N(CC2CCCO2)c2nc3ccccc3s2)cc1[N+](=O)[O-] (stereo not given) | criterion met
* O=C(Nc1ccc(C(F)(F)F)c(C(F)(F)F)c1)c1cc(Cl)ccc1O | criterion met
* CCOC(=O)c1cc(-c2csc(Nc3c(C)cc(C)cc3C)n2)on1 | criterion not met
* O=C(C1CCCCC1)N1CC(=O)N2CCc3ccccc3C2C1 (stereo not given) | criterion not met

Would you say Clc1ccc(CN2CCN(C3=NCCN3)CC2)cc1Cl shows growth inhibition at minimum 30%? criterion not met

* * *

Measured growth inhibition, listed per entry for reference.
# Tested on: Plasmodium falciparum NF54
# Experiment Summary: growth inhibition relative to untreated control; higher = more inhibition
# Stated Conditions: 1 µM; MM + chorismate end-products (CM screening medium); 72 h

Entry Cc1ccc2oc(-c3cc(NC(=O)Cc4ccccc4)ccc3Cl)nc2c1 needs its growth inhibition filled in; supply it. < 0%

Fill in growth inhibition for record Clc1ccc(CCNc2cc(-c3ccccc3)nc3ncnn23)cc1 < 0%

Dear colleague, please send me the reported growth inhibition for CC(C)(C)OC(=O)N1CCN(c2nccc(-c3ccc(-c4ccc(Cl)cc4)s3)n2)CC1 when you can. < 0%

* * *

Measured growth inhibition of individual entries
# Test system: Plasmodium falciparum NF54
# Experiment Summary: growth inhibition relative to untreated control; higher = more inhibition
# Stated Conditions: 5 µM; MM + chorismate end-products (CM screening medium); 72 h

* Nc1nccc2ccc(Oc3ccncc3)cc12 | 68.2%
* Cc1cc2nc(NC(=O)C(C)(C)C)nc(Cl)c2n1Cc1ccc(Cl)cc1 | < 0%
* Cc1[nH]c2ccccc2c1C(c1cccs1)N1CCN(C)CC1 (centres undefined) | 9.09%

// output growth inhibition; input Cc1ccccc1CN1CCC(O)(c2ccc(Cl)c(C(F)(F)F)c2)CC1 ; system Plasmodium falciparum NF54 82.6%

* * *

# Test system: Plasmodium falciparum NF54
# Experiment Summary: growth inhibition relative to untreated control; higher = more inhibition
# Stated Conditions: 1 µM; MM + chorismate end-products (CM screening medium); 72 h
If the reported growth inhibition equals or exceeds 30%, assign yes (1). If not, assign no (0).

* FC(F)(F)c1ccc(N(c2cccnc2)C2CCN(c3ccc(C(F)(F)F)cn3)CC2)cc1 | yes (1)
* Brc1c(-c2ccc3c(c2)OCO3)nc2ncccn12 | no (0)

Is growth inhibition at least 30%? Consider O=C(COc1cccc(F)c1)Nc1nc(-c2ccccn2)cs1 no (0)

Does CCOc1ccc2cc(-c3nn(CC4CCN(C)CC4)c4ncnc(N)c34)ccc2c1 have a reported growth inhibition of at least 30%? yes (1)

Can CCOc1ccc2cc(-c3nn(C(C)(C)C)c(N)c3C(N)=O)cnc2c1 be said to have growth inhibition at or above 30%? no (0)

Please check the record COc1ccc(Cl)cc1NC(=O)CN(C)C(=O)c1cnn(-c2ccccc2)n1 and state if its growth inhibition is at or above 30%. yes (1)

Has CC[C@@H](CO)NCCN[C@@H](CC)CO a recorded growth inhibition greater than or equal to 30%? no (0)

* * *

Documented growth inhibition across a set of compounds
# Test system: Plasmodium falciparum NF54
# Experiment Summary: growth inhibition relative to untreated control; higher = more inhibition
# Stated Conditions: 5 µM; minimal medium (MM); 72 h
Enter your answer as a number in %; do not include the unit.

Check out these entries, answers already filled in.
- CNC(=O)c1nn(C)c2c1C(C)(C)Cc1cnc(Nc3ccc(N4CCN(C)CC4)cc3)nc1-2: 87.2
- COc1ccc(CN2CCOc3ccc(C(C)(O)CN(C)C)cc3C2)cc1C (centres undefined): 21.7

As a next step, examine the compound that follows.
For the compound CC(C)(C)OC(=O)N1CCN(c2nccc(-c3ccc(-c4ccc(Cl)cc4)s3)n2)CC1 , give its reported growth inhibition. 11.6

* * *

In this section, each of the molecules is paired with its reported growth inhibition.
# Tested on: Plasmodium falciparum NF54
# Experiment Summary: growth inhibition relative to untreated control; higher = more inhibition
# Stated Conditions: 5 µM; MM + chorismate end-products (CM screening medium); 72 h

* Cc1ccc2[nH]c(C3CCCNC3)c(-c3ccncc3)c2c1 (stereo not given) | > 100%
* Cc1cc(C)cc(COc2ccc3c(C)c(CCC(=O)O)c(=O)oc3c2C)c1 | < 0%
* COc1ccc(C2=NCCN2)cc1-c1cn(-c2cccc(C3=NCCN3)c2)nn1 | > 100%

For c1ccc(Oc2ccc(-c3cc(CN4CCOCC4)[nH]n3)cc2)cc1 , write its growth inhibition. < 0%

For CC(C)=CCC/C(C)=C/CNCCNC1C2CC3CC(C2)CC1C3 (stereo not given) , write its growth inhibition. > 100%
